tested on: OVCAR-3 ovarian; assay: NCI tumour cell line growth inhibition, 48 h
Each record here notes measured TGI.

# Compound, TGI
data = [
    ("OC1c2[nH]c3ccccc3c2CCN2CCCCC12 (stereo not given)", "> 100 µM"),
    ("O=C(OCCO)C1CC2CC1C1(C2)OCCO1 (stereo not given)", "> 100 µM"),
    ("O=C1c2c(c(-c3ccccc3)c(-c3ccccc3)c(-c3ccccc3)c2-c2ccccc2)C(=O)N1c1cccc(Br)c1", "> 100 µM"),
    ("O=C(CSc1ncnc2nc[nH]c12)c1ccccc1", "> 100 µM"),
    ("COC(=O)Cc1c(-c2[nH]c3ccccc3c2CC(=O)OC)[nH]c2ccccc12", "> 41.2 µM"),
]

###

test system: HOP-62 NSCLC; assay: NCI tumour cell line growth inhibition, 48 h

# Molecule, TGI
measured = [
    ("CCOC(=O)C(Br)(C(N)=O)C1(O)OC(c2ccccc2)=C(Br)C1=O (stereo not drawn)", "81.2 µM"),
    ("O=C1c2ccccc2C(=O)N1CCCC(=O)n1cc(F)c(=O)[nH]c1=O", "> 24.6 µM"),
    ("C=Cc1c(C)c(O)cc2c1-c1ccc(O)c(C)c1CC2", "83.8 µM"),
    ("Cn1c(-c2cccc(N)c2)[n+](C)c2ccccc21", "> 100 µM"),
    ("CCN(CC)CCNC(=O)c1cc2cc(NC(=O)c3cc4cc(N)ccc4[nH]3)ccc2[nH]1", "> 100 µM"),
    ("O=C(O)/C=C\\C(=O)c1ccc(Cl)cc1", "> 100 µM"),
    ("COc1ccc(C2Oc3ccc(Cl)cc3C=C2[N+](=O)[O-])cc1OC (stereo not drawn)", "3.12 µM"),
    ("COc1cc(O)cc2oc(-c3ccc(O)cc3)cc(=O)c12", "> 100 µM"),
]

###

system: UACC-257 melanoma; experiment: NCI tumour cell line growth inhibition, 48 h
Where a SMILES comes first, the peptide text is derived from it. [ ]: non-standard residue; d: D form. The star is where a group is joined. ξ: configuration not given here. ξD = NC(CC(=O)O)C(=O)O; Boc = CC(C)(C)OC(=O)*; Aib = CC(C)(N)C(=O)O; OtBu = CC(C)(C)O*

# Molecule, Target system, TGI
records = [
    ("COc1ccccc1/C=C1\\C(=O)N(C(=O)c2ccc(NC(C)=O)cc2)N=C1C", "UACC-257 melanoma", "> 100 µM"),
    ("COC(=O)C(C)(C)NC(=O)C(C)(C)NC(=O)C(CC(=O)OC(C)(C)C)NC(=O)OC(C)(C)C (stereo not drawn) (Boc-[ξD](OtBu)-[Aib]-[Aib]-OMe)", "UACC-257 melanoma", "> 100 µM"),
    ("O=C(Nc1sccc1S(=O)(=O)c1ccc(Cl)cc1)c1ccc(Cl)cc1", "UACC-257 melanoma", "> 100 µM"),
]

###

system: UACC-62 melanoma; test: NCI tumour cell line growth inhibition, 48 h
Reported TGI values for a set of compounds
Readout: TGI

# Compound, Target system, Result
measured = [
    ("CCOC(=O)CO/N=C\\C1=CC(=O)C2CC1C2(C)C (stereo not drawn)", "UACC-62 melanoma", "> 100 µM"),
    ("O=C(O)C(F)(F)C(F)(F)C(F)(F)C(F)(F)C(F)(F)C(F)(F)C(F)(F)C(F)(F)F", "UACC-62 melanoma", "> 100 µM"),
    ("O=P1(N(CCCl)CCCl)Oc2ccc(Cl)cc2Sc2c(ccc(Cl)c2Cl)O1 (stereo not drawn)", "UACC-62 melanoma", "> 100 µM"),
]
